# applied_conditions: 328.15 K; 101.33 kPa; Liquid; Vibrating tube method
assay_readout: mass density (kg/m3)

>>> print(df.to_string())
                                   compound  measure_unit  quantitative_readout
0  COS(=O)(=O)[O-].C[n+]1ccccc1 [1-methylpyridinium methylsulfate]         kg/m3               1324.69
1  CCc1cccc[n+]1C.COS(=O)(=O)[O-] [2-ethyl-1-methylpyridinium methyl sulfate]         kg/m3                1264.5
2  CCOS(=O)(=O)[O-].CCc1cccc[n+]1CC [1,2-diethylpyridinium ethylsulfate]         kg/m3                1200.1
3  COS(=O)(=O)[O-].Cc1ccc[n+](C)c1 [1,3-dimethylpyridinium methyl sulfate]         kg/m3               1282.42

###

# applied_conditions: 318.15 K; 101.33 kPa; Liquid; Sing-around technique in a fixed-path interferometer
assay_readout: speed of sound (m/s)

In [3]: df
Out[3]:
                                   molecule  measure_unit  quantitative_readout
0  CCOS(=O)(=O)[O-].CCc1cccc[n+]1CC [1,2-diethylpyridinium ethylsulfate]           m/s                  1693
1  COS(=O)(=O)[O-].Cc1ccc[n+](C)c1 [1,3-dimethylpyridinium methyl sulfate]           m/s                1773.5
2  COS(=O)(=O)[O-].C[n+]1ccccc1 [1-methylpyridinium methylsulfate]           m/s                1829.4
3  CCc1cccc[n+]1C.COS(=O)(=O)[O-] [2-ethyl-1-methylpyridinium methyl sulfate]           m/s                1806.5

###

Listing of entries alongside the reported refractive index.
# procedure_summary: refractive index (Na D-line) (dimensionless)
# applied_conditions: 343.15 K; 101.33 kPa; Liquid; Standard Abbe refractometry
± gives the expanded uncertainty stated by the source.
assay_readout: refractive index

>>> print(df.to_string())
                                   molecule             result
0  COS(=O)(=O)[O-].C[n+]1ccccc1 [1-methylpyridinium methylsulfate]   1.5009 ± 0.00051
1  CCOS(=O)(=O)[O-].CCc1cccc[n+]1CC [1,2-diethylpyridinium ethylsulfate]   1.5009 ± 0.00051
2  CCc1cccc[n+]1C.COS(=O)(=O)[O-] [2-ethyl-1-methylpyridinium methyl sulfate]  1.50722 ± 0.00051
3  COS(=O)(=O)[O-].Cc1ccc[n+](C)c1 [1,3-dimethylpyridinium methyl sulfate]  1.50046 ± 0.00051

###

Here, each record is paired with measured refractive index data.
# procedure_summary: refractive index (Na D-line) (dimensionless)
# applied_conditions: 328.15 K; 101.33 kPa; Liquid; Standard Abbe refractometry
assay_readout: refractive index

                                   compound  quantitative_readout
0  CCOS(=O)(=O)[O-].CCc1cccc[n+]1CC [1,2-diethylpyridinium ethylsulfate]               1.50513
1  CCc1cccc[n+]1C.COS(=O)(=O)[O-] [2-ethyl-1-methylpyridinium methyl sulfate]               1.51115
2  COS(=O)(=O)[O-].C[n+]1ccccc1 [1-methylpyridinium methylsulfate]               1.50497
3  COS(=O)(=O)[O-].Cc1ccc[n+](C)c1 [1,3-dimethylpyridinium methyl sulfate]               1.50472

###

# applied_conditions: 298.15 K; 101.33 kPa; Liquid; Capillary tube (Ostwald / Ubbelohde) method
assay_readout: viscosity (mPa·s)

>>> print(df.to_string())
                                   molecule  quantitative_readout
0  CCOS(=O)(=O)[O-].CCc1cccc[n+]1CC [1,2-diethylpyridinium ethylsulfate]                 324.7
1  COS(=O)(=O)[O-].Cc1ccc[n+](C)c1 [1,3-dimethylpyridinium methyl sulfate]                 128.6
2  COS(=O)(=O)[O-].C[n+]1ccccc1 [1-methylpyridinium methylsulfate]                 116.2
3  CCc1cccc[n+]1C.COS(=O)(=O)[O-] [2-ethyl-1-methylpyridinium methyl sulfate]                  4559

###

# applied_conditions: 323.15 K; 101.33 kPa; Liquid; Sing-around technique in a fixed-path interferometer
± gives the expanded uncertainty stated by the source.
assay_readout: speed of sound

>>> print(df.to_string())
                                   molecule            result
0  CCOS(=O)(=O)[O-].CCc1cccc[n+]1CC [1,2-diethylpyridinium ethylsulfate]  1680.5 ± 4.5 m/s
1  COS(=O)(=O)[O-].Cc1ccc[n+](C)c1 [1,3-dimethylpyridinium methyl sulfate]  1761.7 ± 4.5 m/s
2  CCc1cccc[n+]1C.COS(=O)(=O)[O-] [2-ethyl-1-methylpyridinium methyl sulfate]  1794.9 ± 4.5 m/s
3  COS(=O)(=O)[O-].C[n+]1ccccc1 [1-methylpyridinium methylsulfate]  1817.9 ± 4.5 m/s

###

# applied_conditions: 313.15 K; 101.33 kPa; Liquid; Sing-around technique in a fixed-path interferometer
assay_readout: speed of sound (m/s)

>>> df
                                   compound  quantitative_readout
0  CCc1cccc[n+]1C.COS(=O)(=O)[O-] [2-ethyl-1-methylpyridinium methyl sulfate]                1818.4
1  CCOS(=O)(=O)[O-].CCc1cccc[n+]1CC [1,2-diethylpyridinium ethylsulfate]                1705.7
2  COS(=O)(=O)[O-].C[n+]1ccccc1 [1-methylpyridinium methylsulfate]                1840.9
3  COS(=O)(=O)[O-].Cc1ccc[n+](C)c1 [1,3-dimethylpyridinium methyl sulfate]                1785.4

###

# applied_conditions: 318.15 K; 101.33 kPa; Liquid; Capillary tube (Ostwald / Ubbelohde) method
Numbers after ± are expanded uncertainties.
viscosity listing for selected compounds.
assay_readout: viscosity

In [3]: df
Out[3]:
                                   compound            result
0  COS(=O)(=O)[O-].Cc1ccc[n+](C)c1 [1,3-dimethylpyridinium methyl sulfate]  49.6 ± 3.1 mPa·s
1  CCOS(=O)(=O)[O-].CCc1cccc[n+]1CC [1,2-diethylpyridinium ethylsulfate]   104 ± 6.5 mPa·s
2  COS(=O)(=O)[O-].C[n+]1ccccc1 [1-methylpyridinium methylsulfate]    49.3 ± 3 mPa·s
3  CCc1cccc[n+]1C.COS(=O)(=O)[O-] [2-ethyl-1-methylpyridinium methyl sulfate]  1293 ± 100 mPa·s

###

# applied_conditions: 308.15 K; 101.33 kPa; Liquid; Capillary tube (Ostwald / Ubbelohde) method
Numbers after ± are expanded uncertainties.
Listed next: entries and their corresponding viscosity.
assay_readout: viscosity

In [3]: df
Out[3]:
                                   molecule  assay_readout            result
0  CCOS(=O)(=O)[O-].CCc1cccc[n+]1CC [1,2-diethylpyridinium ethylsulfate]      viscosity  175.8 ± 11 mPa·s
1  COS(=O)(=O)[O-].C[n+]1ccccc1 [1-methylpyridinium methylsulfate]      viscosity  73.1 ± 4.5 mPa·s
2  CCc1cccc[n+]1C.COS(=O)(=O)[O-] [2-ethyl-1-methylpyridinium methyl sulfate]      viscosity  2329 ± 200 mPa·s
3  COS(=O)(=O)[O-].Cc1ccc[n+](C)c1 [1,3-dimethylpyridinium methyl sulfate]      viscosity  76.8 ± 4.8 mPa·s
